- Tested on: Candida albicans
- measurement_notes: MIC (Minimum Inhibitory Concentration)
- Assay type: cell-based
- experimental_context: Candida albicans A 3166, read-out: MIC values
The entries below come with measured log10(MIC) values attached.
Units before log transform: µg/mL; reported quantity: MIC; transform: log10.

A selection of reference data follows.
molecule	assayed_system	log10(MIC)
[C-]#[N+]C(C1=CCSCC1)S(=O)(=O)c1ccc(C)cc1 (stereo not drawn) [Example 16b]	Candida albicans	0.48
[C-]#[N+]C(=C(C)C)S(=O)(=O)c1ccc(C)cc1	Candida albicans	1.10
[C-]#[N+]C(=C(C)c1ccccc1)S(=O)(=O)c1ccc(C)cc1	Candida albicans	0.48
[C-]#[N+]C(=C(C)CC)S(=O)(=O)c1ccc(C)cc1 [Example 27a]	Candida albicans	0.48
[C-]#[N+]C(=CC(C)(C)C)S(=O)(=O)c1ccc(C)cc1	Candida albicans	1.10

query: Quick one: log10(MIC) for `[C-]#[N+]C(=C(C)c1cccs1)S(=O)(=O)c1ccc(C)cc1` ?
result: 0.18

query: I'd like to know its log10(MIC). The molecule in question is [C-]#[N+]C(C1=CCOCC1)S(=O)(=O)c1ccc(C)cc1 (stereo not drawn) [Example 14b]
result: 0.78

query: Need log10(MIC) of `[C-]#[N+]C(=C(C)c1ccc([N+](=O)[O-])cc1)S(=O)(=O)c1ccc(C)cc1` , thanks.
result: 0.18

query: Query (molecule): `[C-]#[N+]C(=Cc1ccco1)S(=O)(=O)c1ccc(C)cc1` ; field requested: log10(MIC)
result: -0.40

query: Quick one: log10(MIC) for `[C-]#[N+]C(=C(CCCCC)CCCCC)S(=O)(=O)c1ccc(C)cc1` ?
result: 1.40

query: Query: log10(MIC); subject: [C-]#[N+]C(C(C)=CC)S(=O)(=O)c1ccc(C)cc1 (stereo not drawn) [Example 27b]
result: 0.48

query: Recorded log10(MIC) of `[C-]#[N+]C(=CCCC)S(=O)(=O)c1ccc(C)cc1` , please.
result: 1.70

query: Name the recorded log10(MIC) for `[C-]#[N+]C(=Cc1ccccc1)S(=O)(=O)c1ccc(C)cc1` .
result: 1.10

query: So what's the measured log10(MIC) for this one? `[C-]#[N+]C(=Cc1cccn1C)S(=O)(=O)c1ccc(C)cc1`
result: 0.78

query: Item C[C@@H]1C/C=C/C=C/C=C/C=C/[C@H](O[C@@H]2O[C@H](C)[C@@H](O)[C@H](N)[C@@H]2O)C[C@@H]2O[C@](O)(C[C@@H](O)C[C@H]3O[C@@H]3/C=C/C(=O)O1)C[C@H](O)[C@H]2C(=O)O [natamycin, reference compound] has what recorded log10(MIC)?
result: 0.78

query: Find the recorded log10(MIC) belonging to `[C-]#[N+]C(=Cc1ccc(OC)cc1)S(=O)(=O)c1ccc(C)cc1` and report it.
result: 0.18

query: # get_value(readout='log10(MIC)', item= `[C-]#[N+]C(=Cc1ccc(Cl)cc1)S(=O)(=O)c1ccc(C)cc1` )
result: 0.18

query: Recorded log10(MIC) of `[C-]#[N+]C(=C(CCCC)c1ccccc1)S(=O)(=O)c1ccc(C)cc1` , please.
result: 0.78
